Source: paper PMC10570040

Molecular target: T1, EnfR T55I (Thermococcus onnurineus NA1, UniProt B6YTS4 1-146, T55I)
T1 sequence: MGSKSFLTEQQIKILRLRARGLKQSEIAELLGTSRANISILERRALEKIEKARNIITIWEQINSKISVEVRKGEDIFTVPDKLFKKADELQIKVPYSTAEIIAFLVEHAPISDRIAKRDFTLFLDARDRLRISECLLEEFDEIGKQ
Assay: ITC; 25 C; N = 0.80; EMSA: 10 mM Tris pH 7.4, 200 mM KCl, 2 mM DTT, 0.2 mM EDTA, 37 C 20 min; ITC: 10 mM Tris-HCl pH 7.4, 200 mM KCl, 1 mM TCEP, 0.2 mM EDTA, 25 C; footprint: 20 mM
Conditions: protein: recombinant; tags: C-terminal His6, non-cleavable; chain copies: 2; blunt
observable: pKd
Keep it numeric: pKd is minus log10 of the concentration in mol/L.

Ask: Consider the binder 36-bp target, unlabelled (ITC) (dsDNA) DNA 1: CCATCTTAAAATCTTTTTGTTTACATTATACGAGGT DNA 2: ACCTCGTATAATGTAAACAAAAAGATTTTAAGATGG and give its measured pKd.
Reply: 6.02
